- Test system: cancer cells
- test-method-notes: SRB analysis 3, triple combination, summary over cancer panels
- Format: cell-based
- condition-summary: Stomach Cancer; MKN-28, AGS
quantity-name: Positive/Negative (triple combination of KN510, KN713 and the listed anticancer drug)

A selection of reference data follows.
CC(=O)O[C@H]1C(=O)[C@@]2(C)[C@H]([C@H](OC(=O)c3ccccc3)[C@]3(O)C[C@H](OC(=O)[C@H](O)[C@@H](NC(=O)c4ccccc4)c4ccccc4)C(C)=C1C3(C)C)[C@]1(OC(C)=O)CO[C@@H]1C[C@@H]2O [Paclitaxel]: Positive
Nc1ccn([C@@H]2O[C@H](CO)[C@@H](O)C2(F)F)c(=O)n1 [Gemcitabine]: negative
O=c1[nH]cc(F)c(=O)[nH]1 [5-FU]: Positive
CCc1c2c(nc3ccc(OC(=O)N4CCC(N5CCCCC5)CC4)cc13)-c1cc3c(c(=O)n1C2)COC(=O)[C@]3(O)CC [Irinotecan]: Positive

Noted for N.N.[Cl][Pt][Cl] [Cisplatin] : its Positive/Negative (triple combination of KN510, KN713 and the listed anticancer drug) reads negative
